B1: Max-interacting protein 1, residues 70 to 120; numbered along this chain, P50539 (parent)
chain: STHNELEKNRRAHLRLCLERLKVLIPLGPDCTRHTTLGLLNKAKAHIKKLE

Variants of: B1
Assay: abundance fitness (aPCA) (normalised: wild type 0, dead -1); higher = more abundant; growth selection in yeast, the domain comes from the species named
Conditions: Homo sapiens
Would you please tag the item TRUE when its abundance fitness is -0.4 or above, and FALSE when it is below?

# mut, qualitative_label
measured = [
    ("K48W", "TRUE"),
    ("R15K", "TRUE"),
    ("E7C", "TRUE"),
    ("T32E", "TRUE"),
    ("L6V", "TRUE"),
    ("N41R", "TRUE"),
    ("R10V", "TRUE"),
    ("D30P", "TRUE"),
    ("I25C", "TRUE"),
    ("A45R", "TRUE"),
    ("R20W", "FALSE"),
    ("R15G", "TRUE"),
    ("L14D", "TRUE"),
    ("L16V", "TRUE"),
    ("N41S", "TRUE"),
    ("G28W", "TRUE"),
    ("R33K", "TRUE"),
    ("T36H", "TRUE"),
    ("P29D", "TRUE"),
    ("R15E", "FALSE"),
    ("L14V", "TRUE"),
    ("R11C", "TRUE"),
    ("R10N", "TRUE"),
    ("G38K", "TRUE"),
    ("L6S", "TRUE"),
    ("R11V", "FALSE"),
    ("I47P", "FALSE"),
    ("T2W", "FALSE"),
    ("K22G", "FALSE"),
    ("E19V", "FALSE"),
    ("E19Q", "TRUE"),
    ("T32V", "TRUE"),
    ("C31I", "TRUE"),
    ("P26G", "TRUE"),
    ("S1L", "FALSE"),
    ("C31A", "TRUE"),
    ("V23G", "TRUE"),
]
